# key: entry, value: %Inh
test system: WEE1; conditions: concentration: 1 μM, replicates: in singlicate; n = 1;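 note: KINOMEscan kinase panel screen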
Please give a number only; it is taken to be in %.

Observe how each entry below is paired with its result.
{"columns": ["compound", "readout units", "meas value"],
 "data": [
  ["COc1cc(Nc2nccc(N3CCC(NC(=O)C(C)c4ccc(Cl)cc4)C3)n2)cc(OC)c1OC (stereo not drawn)", "%", 30],
  ["CCC(=O)c1c(-c2ccccc2)c2cc(Cl)ccc2c(=O)n1Cc1cc(S(C)(=O)=O)n(CC(N)=O)n1", "%", 4],
  ["COc1ccc(-c2cc3c(C)nc(N)nc3n([C@H]3CC[C@H](O)CC3)c2=O)cn1", "%", 0],
  ["O=C(Nc1n[nH]c2cc(-c3ccccc3F)ccc12)C1CC1", "%", 5],
  ["Cn1c(=O)c(F)c(Nc2ccc(I)cc2F)c2c(=O)n(OC[C@H](O)CO)cnc21", "%", 29]
]}

Quick note, %Inh for `O=C(Nc1n[nH]c2nc(-c3ccccc3)c(Cl)cc12)C1CC1` landed at 0

Quick note, %Inh for Cc1nnc(-c2ccc3ncn(-c4ccc(S(C)=O)cc4)c3c2)o1 (stereo not drawn) landed at 0

Quick note, %Inh for `C[C@@H]1CC[C@H](C(=O)NC2CCCCC2)CN1c1cc(-c2ccc3c(N)n[nH]c3c2)nc(N)n1` landed at 34
